- measurement-target: T1, Cynomolgus v6-peptide (cynomolgus, UniProt A0A2K5VJE0 387-429, N-terminal biotin)
- T1 construct: domain: v6-region (43 amino acids); also called Cm v6-peptide; cm v6-peptide
- T1 peptide: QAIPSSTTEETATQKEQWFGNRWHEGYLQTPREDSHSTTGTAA
- protocol-description: SPR SCK, antibody immobilised, peptide injected
parameter-measured: koff (s⁻¹)
Please reply with the bare figure in s⁻¹ and do not write the unit itself.

Requested field: koff. Item: AL-MN114-465 IgG1 LALA IAHA (antibody, V domains shown, Human IgG1 LALA IAHA, kappa) VH: EVQLLESGGGLVQPGGSLRLSCAASGFSFGSYAMSWVRQAPGKGLEWVSAISAGGSSTFYADSVKGRFTISRDNSKNTLYLQMNSLRAEDTAVYYCARHYYSDSDYRSSAAMDYWGQGTLVTVSS VL: DIQMTQSPSSLSASVGDRVTITCRASQSISSYLNWYQQKPGKAPKLLIYTASSLQSGVPSRFSGSGSGTDFTLTISSLQPEDFATYYCQQDLYLLTFGQGTKLEIK 0.0085

Requested field: koff. Item: AL-MN114-132 IgG1 LALA (antibody, V domains shown, item 20 iii) gives heavy 77 / light 96 without naming the format) VH: EVQLLESGGGLVQPGGSLRLSCAASGFTFSSYAMSWVRQAPGKGLEWVSAISGGGSSTYYADSVKGRFTISRDNSKNTLYLQMNSLRAEDTAVYYCARHYYSDSDYRSSAAMDYWGQGTLVTVSS VL: DIQMTQSPSSLSASVGDRVTITCRASQSISSYLNWYQQKPGKAPKLLIYAASSLQSGVPSRFSGSGSGTDFTLTISSLQPEDFATYYCQQDLYLLTFGQGTKLEIK 0.0096

Origin of measurements: patent US20250340662A1
